Test system: SNB-19 CNS
protocol-description: NCI-60 one-dose screen, 48 h
experimental-parameters: 10 µM unless noted
About 83,000 compounds went through this panel and 20% of them were active in at least one assay; those are over-represented in the sample as a whole. The source made the active and inactive calls. Rule for the calls: active = growth percent below 10; inactive = the rest.
Valid outcomes are listed here; reply with one: T (active), F (inactive)

Lab log entry: `Oc1ccc(-c2nnc3c4[nH]ccc4ncn23)cc1` — outcome as called in the assay?
F

Lab log entry: `CCCCCCCCCCCCCCCCCC(=O)OCCCCCCCCCCCCC` — outcome as called in the assay?
F

Lab log entry: `O=S(=O)(Cc1ccc(Cl)cc1Cl)c1ccc(Cl)cc1` — outcome as called in the assay?
F

Lab log entry: `Cc1ccncc1NC=O` — outcome as called in the assay?
F

Lab log entry: `CCCCCCCCCCCCCCCCCC(=O)[O][Sn]([CH2]CCC)([CH2]CCC)[CH2]CCC` — outcome as called in the assay?
T

Lab log entry: `O=C(NCCN1CCCCC1)n1cc(-c2ccncc2)c(-c2ccc(Cl)c(O)c2)n1` — outcome as called in the assay?
F

Lab log entry: `Cc1ccc(C)c2c1SC1=NNC(Oc3ccc(Cl)cc3)=C(C#N)C(=N)N12` — outcome as called in the assay?
F

Lab log entry: `Cc1cccc(/C=N/n2c(-c3ccc(Cl)cc3)nc3c(Br)cc(Br)cc3c2=O)c1` — outcome as called in the assay?
F

Lab log entry: O=C(CSc1nnc(Cc2ccccc2Nc2c(Cl)cccc2Cl)n1-c1ccccc1)N1N=C(c2ccc3ccccc3c2)CC1c1ccc(Cl)cc1 (stereo unspecified) — outcome as called in the assay?
F

Lab log entry: `CCN(CC)CCNC(=O)n1cc(-c2ccncc2)c(-c2cc(Cl)cc(OC)c2)n1` — outcome as called in the assay?
F

Lab log entry: `COc1cc([N+](=O)[O-])cc(OC)c1OC` — outcome as called in the assay?
F

* * *

I'd appreciate it if you could supply growth values for the items below.
System: IGROV1 ovarian
protocol-description: NCI-60 one-dose screen, 48 h (100 = growth as untreated, 0 = no growth, -100 = all killed)
experimental-parameters: 10 µM unless noted
Method: Growth inhibition of the IGROV1 human tumor cell line is measured as a screen for anti-cancer activity. Cells are grown in 96 well plates and exposed to the test compound for 48 hours. Compounds are tested at a single concentration, which is 10^-5 M for most compounds. The reported endpoint is percent growth (GI% or GIPRCNT), where numbers from 0 - 100% represent growth inhibition, and numbers from -100% - 0 represent cell death. For example, a value of 40 represents 60% growth inhibition. […]
The panel holds about 83,000 compounds, 20% with a hit somewhere; the sample as a whole holds those more often.
Reply with just the number (in %).

Returns the measured growth for the input compound. Input: `CC(C)(C)OC(=O)N1CCCN(CCNc2nccc(-c3c(-c4cccc(O)c4)nc4sccn34)n2)S1(=O)=O`
79.5

Returns the measured growth for the input compound. Input: `O=C(Nc1ccncc1)C(=O)c1cn(S(=O)(=O)c2cccc(Cl)c2F)c2ccccc12`
70.9

Returns the measured growth for the input compound. Input: CCN(CC)CCCC(C)Nc1c(-c2ccccc2)cnc2cc(Cl)ccc12 (stereo not given)
36.5

Returns the measured growth for the input compound. Input: `CCOC(OCC)c1cnc2nc(NC(C)=O)[nH]c(=O)c2n1`
101

Returns the measured growth for the input compound. Input: `COc1cc2ncnc(Nc3ccc(S(=O)(=O)Nc4cc(C)on4)cc3)c2cc1OCCCN1CCN(c2ccc([N+](=O)[O-])cc2)CC1`
108
